Data provenance is the supplement of paper PMC13380429.

Test system: A549-ACE2 infected with SARS-CoV-2
Test: cell count relative to DMSO; higher = less toxic
Details: 3 µM; 24 h
Entries and their cell count values follow.

{"molecule": "CO[C@H]1C[C@H](O[C@@H]2/C(C)=C/C[C@@H]3C[C@@H](C[C@]4(CC[C@H](C)[C@@H](C5CCCCC5)O4)O3)OC(=O)[C@@H]3C=C(C)/C(=N/O)[C@H]4OC/C(=C\\C=C\\[C@@H]2C)[C@]43O)O[C@@H](C)[C@@H]1O", "cell count (%)": 105}
{"molecule": "COc1cc2c(NC3CCN(C(C)C)CC3)nc(N3CCC(F)(F)CC3)nc2cc1OCCCN1CCCC1", "cell count (%)": 122}
{"molecule": "Clc1cc(Cl)c(OCC#CI)cc1Cl", "cell count (%)": 100}
{"molecule": "O=C(c1ccc(OCCN2CCCCC2)cc1)c1c(-c2ccc(O)cc2)sc2cc(O)ccc12", "cell count (%)": 106}
{"molecule": "CCN(CC)C(=S)S [ditiocarb-sodium-trihydrate]", "cell count (%)": 102}
{"molecule": "CC/C(=C(\\c1ccc(O)cc1)c1ccc(OCCN(C)C)cc1)c1ccccc1", "cell count (%)": 121}

====

Tested on: U2OS
Experiment: cell viability relative to DMSO; higher = less toxic
Settings: 72 h; 1 nM

{"compound": "O=c1sn(-c2cccc3ccccc23)c(=O)n1Cc1ccccc1 [tideglusib]", "value units": "%", "cell viability": 98}
{"compound": "Cc1ccc2c(c1CCC(=O)O)CC[C@@H](NS(=O)(=O)c1ccc(Cl)cc1)C2 [terutroban]", "value units": "%", "cell viability": 97.1}
{"compound": "C/C(O)=C(\\C#N)C(=O)Nc1cc(Br)ccc1Br [LFM-A13]", "value units": "%", "cell viability": 102}
{"compound": "CNc1cc2c(Nc3cccc(Br)c3)ncnc2cn1", "value units": "%", "cell viability": 99.4}
{"compound": "CN(C)C/C=C/C(=O)Nc1cccc(C(=O)Nc2cccc(Nc3ncc(Cl)c(-c4c[nH]c5ccccc45)n3)c2)c1 [THZ2]", "value units": "%", "cell viability": 97.8}
{"compound": "OCc1cc(C(O)CNCCCCCCOCCCCc2ccccc2)ccc1O (centres undefined) [salmeterol]", "value units": "%", "cell viability": 103}
{"compound": "NC(=O)c1ccc(F)c2c1C[C@@H](N(C1CCC1)C1CCC1)CO2 [robalzotan]", "value units": "%", "cell viability": 102}
{"compound": "O=C(Nc1ccc(C(F)(F)F)cn1)N1CCN(c2ncccc2C(F)(F)F)CC1", "value units": "%", "cell viability": 94.1}
{"compound": "C[C@@]1(c2cc(-c3cncnc3)c(F)cc2F)CCSC(N)=N1", "value units": "%", "cell viability": 102}
{"compound": "O=C(O)c1cc(O)c2c(c1)C(=O)c1cccc(O)c1C2=O [rhein]", "value units": "%", "cell viability": 103}
{"compound": "CC(C)N(C[C@H]1O[C@@H](n2cnc3c(N)ncnc32)[C@H](O)[C@@H]1O)[C@H]1C[C@@H](CCc2nc3cc(C(C)(C)C)ccc3[nH]2)C1 [EPZ-5676]", "value units": "%", "cell viability": 105}
{"compound": "Cc1ccc(-c2ccc(F)cc2COc2ccc(CCC(=O)O)cc2)cc1 [TUG-891]", "value units": "%", "cell viability": 97.8}
{"compound": "Cc1cc(Nc2ncnc3ccc(NC4=NC(C)(C)CO4)cc23)ccc1Oc1ccn2ncnc2c1 [tucatinib]", "value units": "%", "cell viability": 100}
{"compound": "CCCCCCCCc1ccc(-c2ccc(C(=O)O)cc2)cc1", "value units": "%", "cell viability": 99}
{"compound": "CCCCCCCCCCCCCCCCCCCCCC(=O)O [AGP-103]", "value units": "%", "cell viability": 99.8}
{"compound": "Cc1ccc(-c2nc3ccc(C)cn3c2CC(=O)N(C)C)cc1 [ZOLPIDEM]", "value units": "%", "cell viability": 101}
{"compound": "CC1(C)CCC(C)(C)c2c1cc(C(=O)Nc1cc(F)c(C(=O)O)c(F)c1)c(O)c2Cl", "value units": "%", "cell viability": 100}
{"compound": "Cc1c(-c2cnccn2)ssc1=S [oltipraz]", "value units": "%", "cell viability": 98.3}
{"compound": "COC(=O)N[C@H](C(=O)N1CCC[C@H]1c1ncc(-c2ccc(-c3ccc(-c4cnc([C@@H]5CCCN5C(=O)[C@@H](NC(=O)OC)C(C)C)[nH]4)cc3)cc2)[nH]1)C(C)C [daclatasvir]", "value units": "%", "cell viability": 104}
